For each entry below, report its AC50 value.
target: Beta-1 adrenergic receptor (Homo sapiens, UniProt P08588); assay type: functional; also: assay procedure not described here
Sequence (P08588 whole entry): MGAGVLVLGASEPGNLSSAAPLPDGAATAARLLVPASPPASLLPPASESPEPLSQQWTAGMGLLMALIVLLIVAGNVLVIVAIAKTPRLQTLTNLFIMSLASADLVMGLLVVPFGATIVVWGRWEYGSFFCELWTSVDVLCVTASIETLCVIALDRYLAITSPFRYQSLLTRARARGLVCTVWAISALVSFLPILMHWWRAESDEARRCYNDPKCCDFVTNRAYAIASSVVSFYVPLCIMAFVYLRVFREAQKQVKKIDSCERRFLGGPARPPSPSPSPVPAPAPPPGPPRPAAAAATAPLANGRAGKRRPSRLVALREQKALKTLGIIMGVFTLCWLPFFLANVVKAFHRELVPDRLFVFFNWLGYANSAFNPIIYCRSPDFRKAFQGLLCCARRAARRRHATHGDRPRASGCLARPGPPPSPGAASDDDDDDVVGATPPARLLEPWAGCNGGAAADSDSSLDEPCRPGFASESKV

Solved cases (6 shown):
compound | AC50
Cc1c(C(=O)NN2CCCCC2)nn(-c2ccc(Cl)cc2Cl)c1-c1ccc(Cl)cc1 [RIMONABANT] | > 30 µM
CCN(CC)C(=O)N[C@H]1C[C@@H]2c3cccc4[nH]cc(c34)C[C@H]2N(C)C1 [TERGURIDE] | 3.2 µM
CN1CCC(=C2c3ccccc3CCc3sccc32)CC1 [PIZOTYLINE] | > 10 µM
Cc1c(OCC(F)(F)F)ccnc1C[S+]([O-])c1nc2ccccc2[nH]1 (stereo unspecified) [LANSOPRAZOLE] | > 10 µM
COc1ccc2c3c1O[C@H]1C(=O)CC[C@@]4(O)[C@@H](C2)N(C)CC[C@]314 [OXYCODONE] | > 30 µM
Nc1nc(Cl)nc2c1ncn2[C@H]1C[C@H](O)[C@@H](CO)O1 [CLADRIBINE] | > 30 µM

Go through the items and report each one's AC50.
1. CC(C)C[C@H]1C(=O)N2CCC[C@H]2[C@]2(O)O[C@](NC(=O)[C@@H]3C=C4c5cccc6[nH]c(Br)c(c56)C[C@H]4N(C)C3)(C(C)C)C(=O)N12 [BROMOCRIPTINE]
2. CC(=O)O[C@H]1CC[C@@]2(C)C(=CC[C@@H]3[C@@H]2CC[C@]2(C)C(c4cccnc4)=CC[C@@H]32)C1 [ABIRATERONE ACETATE]
3. Cc1ccc(-c2cc(C(F)(F)F)nn2-c2ccc(S(N)(=O)=O)cc2)cc1 [CELECOXIB]
4. O=C1C(O)=C([C@H]2CC[C@H](c3ccc(Cl)cc3)CC2)C(=O)c2ccccc21 [ATOVAQUONE]
5. C#C[C@]1(O)CC[C@H]2[C@@H]3CCc4cc(OC5CCCC5)ccc4[C@H]3CC[C@@]21C [QUINESTROL]

Key:
9.23 µM
> 30 µM
> 10 µM
> 30 µM
> 10 µM

Go through the items and report each one's AC50.
1. O=C(O)C1=C(CSc2nnnn2CS(=O)(=O)O)CS[C@@H]2[C@H](NC(=O)[C@H](O)c3ccccc3)C(=O)N12 [CEFONICID]
2. CN(C)CCc1c[nH]c2ccc(C[C@H]3COC(=O)N3)cc12 [ZOLMITRIPTAN]
3. c1ccc([C@H]2CN3CCSC3=N2)cc1 [LEVAMISOLE]
4. COc1cc2nc(N3CCN(C(=O)c4ccco4)CC3)nc(N)c2cc1OC [PRAZOSIN]
5. Cc1cc(O)c(C(=O)N[C@@H](C(=O)N[C@@H]2C(=O)N3C(C(=O)O)=C(CSc4nnnn4C)CS[C@H]23)c2ccc(O)cc2)cn1 [CEFPIRAMIDE]

Key:
> 30 µM
> 30 µM
> 30 µM
> 10 µM
> 30 µM

----------
Target or system Cannabinoid receptor 1 (Homo sapiens); recorded quantity AC50. Also: assay procedure not described here.

Solved cases (3 shown):
molecule | value_observed
COC(=O)C1=C(C)NC(C)=C(C(=O)OC(C)(C)CN(C)CCC(c2ccccc2)c2ccccc2)C1c1cccc([N+](=O)[O-])c1 (stereo not drawn) [LERCANIDIPINE] | 6.6 µM
CN1[C@@H]2CC[C@H]1C[C@@H](OC(c1ccccc1)c1ccccc1)C2 [BENZTROPINE] | > 10 µM
CCCCN1C[C@H](O)[C@@H](O)[C@H](O)[C@H]1CO | > 30 µM

Go through the items and report each one's AC50.
1. CN(C)CCC(c1ccc(Cl)cc1)c1ccccn1 (stereo not drawn) [CHLORPHENIRAMINE]
2. C#C[C@]1(O)CC[C@H]2[C@@H]3CCc4cc(OC5CCCC5)ccc4[C@H]3CC[C@@]21C [QUINESTROL]
3. O=C1Nc2ccc(Cl)cc2[C@@](C#CC2CC2)(C(F)(F)F)O1 [EFAVIRENZ]
4. CCOc1ccc(Cc2cc([C@@H]3O[C@H](CO)[C@@H](O)[C@H](O)[C@H]3O)ccc2Cl)cc1 [DAPAGLIFLOZIN]
5. c1ccc([C@H]2CN3CCSC3=N2)cc1 [LEVAMISOLE]

Key:
> 10 µM
> 10 µM
20.7 µM
> 10 µM
> 30 µM

----------
target: Glutamate receptor ionotropic, NMDA 1 (Rattus norvegicus); also: assay procedure not described here
quantity_measured: AC50

compound | value_observed
C[C@H]1COc2c(C3(N)CC3)c(F)cc3c(=O)c(C(=O)O)cn1c23 | > 10 µM
O=C1C(O)=C([C@H]2CC[C@H](c3ccc(Cl)cc3)CC2)C(=O)c2ccccc21 | > 30 µM

Go through the items and report each one's AC50.
1. Clc1ccc2nsnc2c1NC1=NCCN1
2. CN1C(=O)OC(C)(C)C1=O
3. C[C@]1(O)CC[C@H]2[C@@H]3CCC4=CC(=O)CC[C@]4(C)[C@@]3(F)[C@@H](O)C[C@@]21C
4. Cn1nnc2c(C(N)=O)ncn2c1=O [TEMOZOLOMIDE]
5. O=C(O)CCCCCCNC1c2ccccc2CCc2ccccc21

Key:
1. > 10 µM
2. > 10 µM
3. > 10 µM
4. > 10 µM
5. > 30 µM

----------
target: UniProt:P08588; assay type: functional
For each entry below, report its AC50 value.

Solved cases (3 shown):
compound | AC50
COC(=O)C1=C(C)NC(C)=C(C(=O)OC2CCCN(Cc3ccccc3)C2)C1c1cccc([N+](=O)[O-])c1 (centres undefined) | > 30 µM
Clc1ccc(C(c2ccccc2Cl)C(Cl)Cl)cc1 (centres undefined) | > 10 µM
NCC(=O)CCC(=O)O | > 30 µM

Kindly review the next compound as well.
Exercise: Kindly indicate its recorded AC50. Item: CCN1CCN(C(=O)N[C@@H](C(=O)N[C@@H]2C(=O)N3C(C(=O)O)=C(CSc4nnnn4C)CS[C@H]23)c2ccc(O)cc2)C(=O)C1=O
Key: > 30 µM

----------
For each entry below, report its AC50 value.
target: Prostaglandin G/H synthase 1 (Homo sapiens, UniProt P23219); type: functional; also: assay procedure not described here
Sequence (P23219 whole entry): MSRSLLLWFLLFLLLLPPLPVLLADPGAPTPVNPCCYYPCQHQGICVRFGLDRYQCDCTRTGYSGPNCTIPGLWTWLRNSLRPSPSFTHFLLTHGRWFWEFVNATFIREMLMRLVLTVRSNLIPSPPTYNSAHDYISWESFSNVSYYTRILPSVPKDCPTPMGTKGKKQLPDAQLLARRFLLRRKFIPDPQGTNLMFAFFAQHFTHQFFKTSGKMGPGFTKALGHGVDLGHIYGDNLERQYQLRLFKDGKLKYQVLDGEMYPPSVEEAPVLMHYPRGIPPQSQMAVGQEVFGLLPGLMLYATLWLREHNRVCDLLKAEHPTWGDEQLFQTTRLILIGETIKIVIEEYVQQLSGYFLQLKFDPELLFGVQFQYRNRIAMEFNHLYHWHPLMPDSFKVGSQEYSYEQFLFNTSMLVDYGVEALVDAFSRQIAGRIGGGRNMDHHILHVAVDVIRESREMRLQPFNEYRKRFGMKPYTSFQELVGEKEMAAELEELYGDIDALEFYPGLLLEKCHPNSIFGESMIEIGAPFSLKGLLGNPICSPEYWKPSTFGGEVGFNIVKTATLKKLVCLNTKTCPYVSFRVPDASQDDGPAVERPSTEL

Solved cases (3 shown):
compound | AC50
CCCCS(=O)(=O)N[C@@H](Cc1ccc(OCCCCC2CCNCC2)cc1)C(=O)O | > 30 µM
Cc1cccc(Nc2ccccc2C(=O)O)c1C | 0.0115 µM
CCC1=C(C)CN(C(=O)NCCc2ccc(S(=O)(=O)NC(=O)N[C@H]3CC[C@H](C)CC3)cc2)C1=O [GLIMEPIRIDE] | > 30 µM

Exercise: Kindly indicate its recorded AC50. Item: CN(C)CCn1nnnc1SCC1=C(C(=O)O)N2C(=O)[C@@H](NC(=O)Cc3csc(N)n3)[C@H]2SC1
Key: > 30 µM

----------
Target or system Vasopressin V2 receptor (Homo sapiens); recorded quantity AC50. Also: assay procedure not described here.

Solved cases (8 shown):
compound | AC50
CN1C(=O)C(O)N=C(c2ccccc2)c2cc(Cl)ccc21 (stereo not drawn) [TEMAZEPAM] | > 30 µM
CC(C[N+](C)(C)C)OC(N)=O (stereo not drawn) [BETHANECHOL] | > 10 µM
CC[C@H]1[C@@H](O)[C@@H]2[C@H](CC[C@]3(C)[C@@H]([C@H](C)CCC(=O)O)CC[C@@H]23)[C@@]2(C)CC[C@@H](O)C[C@@H]12 [OBETICHOLIC ACID] | > 30 µM
COc1ccccc1OCCNCC(O)c1ccc(C)c(S(N)(=O)=O)c1 (stereo not drawn) [AMOSULALOL] | > 30 µM
O=C(NCCN1CCOCC1)c1ccc(Cl)cc1 [MOCLOBEMIDE] | > 10 µM
CCCSc1ccc2nc(NC(=O)OC)[nH]c2c1 [ALBENDAZOLE] | > 10 µM
CCN(CC)C(=O)N[C@H]1C[C@@H]2c3cccc4[nH]cc(c34)C[C@H]2N(C)C1 [TERGURIDE] | > 30 µM
C=CCC1(C(C)CC)C(=O)NC(=O)NC1=O (stereo not drawn) [TALBUTAL] | > 10 µM

Go through the items and report each one's AC50.
1. Clc1ccc2nsnc2c1NC1=NCCN1 [TIZANIDINE]
2. CCOC(=O)[C@H](CCc1ccccc1)N[C@@H](C)C(=O)N1[C@H](C(=O)O)C[C@@H]2CCC[C@@H]21
3. CCOC(=O)[N-]c1cn(N2CCOCC2)n[o+]1 [MOLSIDOMINE]
4. NCC(CC(=O)O)c1ccc(Cl)cc1 (stereo not drawn) [BACLOFEN]
5. COc1ccccc1OCC(O)CN1CCN(CC(=O)Nc2c(C)cccc2C)CC1 (stereo not drawn) [RANOLAZINE]
6. CO/N=C(\C(=O)N[C@@H]1C(=O)N2C(C(=O)O)=C(CSc3nnnn3C)CS[C@H]12)c1csc(N)n1 [CEFMENOXIME]

Key:
> 30 µM
> 30 µM
> 30 µM
> 30 µM
> 30 µM
> 30 µM

All figures here come from ChEMBL document CHEMBL5291721.
